System: B16-F10
Assay Text: Cytotoxicity against mouse B16F10 cells assessed as reduction in cell viability after 72 hrs by MTT assay
Type: functional, cell-based
Conditions Used: B16-F10, 72 h
Property Measured: IC50

| Compound | Assay System | Property Measured | Recorded Result |
| --- | --- | --- | --- |
| CN(C)C(=O)c1cc2cnc(Nc3ccc(C(=O)NCCCCCCNc4cccc5c4C(=O)N(C4CCC(=O)NC4=O)C5=O)cc3)nc2n1C1CCCC1 (stereo not drawn) | B16-F10 | IC50 | 0.0976 µM |
| Nc1cccc2c1C(=O)N(C1CCC(=O)NC1=O)C2=O (stereo not drawn) [POMALIDOMIDE] | B16-F10 | IC50 | > 10 µM |
| CN(C)C(=O)c1cc2cnc(Nc3ccc(N4CCNCC4)cn3)nc2n1C1CCCC1 [RIBOCICLIB] | B16-F10 | IC50 | > 10 µM |
